- Test system: Alopecurus myosuroides (ALOMY)
- Experiment: Post-emergence biological efficacy, glasshouse pot test
- Format: in vivo
- Setup Conditions: 312 h, post-emergence, 1,000 g/ha, evaluated after 13 days (100=total damage; 0=no damage), read-out: Percentage damage caused to weed species, ALOMY
- Description: Seeds of Alopecurus myosuroides (ALOMY), Setaria faberi (SETFA), Echinochloa crus-galli (ECHCG), Solanum nigrum (SOLNI), Amaranthus retoflexus (AMARE) and Ipomea hederaceae (IPOHE) were sown in standard soil in pots. […] The test plants were then grown on under controlled conditions in a glasshouse (at 24/16° C., day/night; 14 hours light; 65% humidity) and watered twice daily. After 13 days the test was evaluated (100=total damage to plant; 0=no damage to plant).
Measure: pest or weed control at 1000 g/ha
Numeric answer plus unit only.

## Task // returns reported pest or weed control at 1000 g/ha for input COC(=O)c1nc(C2CC2)nc(NCc2cccc(-c3ccccc3)c2)c1Cl
## Result 20%

## Task State the recorded pest or weed control at 1000 g/ha for this entry: COC(=O)c1nc(C2CC2)nc(NCC2(O)CCc3ccc(OC)cc32)c1Cl (stereo not shown)
## Result 50%

## Task Data request, read-out pest or weed control at 1000 g/ha, for CCCC(F)(CNc1nc(C2CC2)nc(C(=O)OC)c1Cl)c1ccc(Cl)cc1Cl (stereo not shown)
## Result 0%

Further cases:
## Task Data request, read-out pest or weed control at 1000 g/ha, for COC(=O)c1nc(C2CC2)nc(NC(C)c2ccccc2)c1Cl (stereo not shown)
## Result 30%

----------
# maps each entry to its pest or weed control at 1000 g/ha
- Tested on: Alopecurus myosuroides (ALOMY)
- Experiment: Pre-emergence biological efficacy, glasshouse pot test
- Format: in vivo
- Setup Conditions: 312 h, pre-emergence, rate 1,000 g/ha, evaluated after 13 days (100=total damage to plant; 0=no damage), read-out: Percentage damage caused to weed species, ALOMY
Respond numerically; units are % and should not be typed.

## Task Sample COC(=O)c1nc(-c2ccc(Cl)c(N(C)C)c2F)nc(NCc2ccco2)c1Cl — what was its pest or weed control at 1000 g/ha?
## Result 50

----------
Listing of entries alongside the reported pest or weed control at 1000 g/ha.
- Test system: Alopecurus myosuroides (ALOMY)
- Experiment: Post-emergence biological efficacy, glasshouse pot test
- Type: in vivo
- Setup Conditions: 312 h, post-emergence, 1,000 g/ha, evaluated after 13 days (100=total damage; 0=no damage), read-out: Percentage damage caused to weed species, ALOMY
Kindly answer with a numeric value in %, unit omitted.

Take a look at these entries with their results.
## Task Which pest or weed control at 1000 g/ha value is on record for O=C(O)c1nc(C2CC2)nc(NCc2ccco2)c1Cl [Compound 1-125] ?
## Result 60

## Task Entry CCOC(=O)[C@H](CSc1ccccc1)Nc1nc(C2CC2)nc(C(=O)OC)c1Cl [4-292 (R)] has what pest or weed control at 1000 g/ha?
## Result 20

## Task Recorded pest or weed control at 1000 g/ha of COC(=O)c1nc(C2CC2)nc(NCCCN2CCCCC2C)c1Cl (stereo not drawn) [Compound 4-247] , please.
## Result 10

***
## Task Entry under review: COC(=O)c1nc(C2CC2)nc(NCc2ccc(Cl)cc2F)c1Cl [Compound 4-101] . Reported pest or weed control at 1000 g/ha?
## Result 30

## Task Please give the measured pest or weed control at 1000 g/ha for this compound: COC(=O)c1nc(C2CC2)nc(NCCC2OCCO2)c1Cl [Compound 4-216]
## Result 20

## Task Sample O=C(O)c1nc(C2CC2)nc(NCc2ccccc2)c1Cl [Compound 1-60] — what was its pest or weed control at 1000 g/ha?
## Result 50

## Task Look up pest or weed control at 1000 g/ha for this compound: COC(=O)c1nc(C2CC2)nc(NCc2ccc(OC)cc2OC)c1Cl [Compound 4-110]
## Result 70

## Task Given the entry COC(=O)c1nc(C2CC2)nc(NC2(COc3ccc(Cl)cc3)CC2)c1Cl [Compound 4-16] , report its measured pest or weed control at 1000 g/ha.
## Result 20

## Task # pest or weed control at 1000 g/ha lookup, item COC(=O)c1nc(C2CC2)nc(N[C@@H](Cc2ccc(Cl)cc2)C(=O)OC)c1Cl [4-285 (S)]
## Result 20

Just for reference, patent US20110086759A1 is where these values come from.
